Task for the reader: assign each of the following molecules its reported EC50.
Target or test system: CD80-CD28 interaction (Homo sapiens)
Construct: mouse Fab fragment (fusion partner)
Sequence (P33681 35-242 limits assumed): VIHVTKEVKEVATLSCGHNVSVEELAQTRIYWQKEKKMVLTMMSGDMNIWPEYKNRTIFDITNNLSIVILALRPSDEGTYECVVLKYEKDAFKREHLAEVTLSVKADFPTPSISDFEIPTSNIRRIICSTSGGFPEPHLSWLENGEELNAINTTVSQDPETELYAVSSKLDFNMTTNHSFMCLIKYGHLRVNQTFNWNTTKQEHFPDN
Run description: cell free Homogenous Time Resolved Fluorescence (HTRF) assay, inhibition of the CD80-CD28 interaction
Assay type: binding
Study conditions: 4 hours at room temperature, read-out: Activity (EC50 in summary form)

Illustrative cases are given below, each with its answer.
Molecule | Target or test system | EC50
CCCNC(=O)Nc1ccc(-n2nc3c4ccccc4[nH]cc-3c2=O)cc1 [Example 159] | CD80-CD28 interaction (Homo sapiens) | < 1000 nM
O=C(NCCCN1CCN(Cc2c(F)cccc2Cl)CC1)c1ccc(-n2nc3c4ccccc4[nH]cc-3c2=O)cc1 [Example 92] | CD80-CD28 interaction (Homo sapiens) | 1000 to 10000 nM
O=C(NC1CCN(Cc2ccccc2)CC1)c1ccc(-n2nc3c4cccc(F)c4[nH]cc-3c2=O)cc1 [Example 116] | CD80-CD28 interaction (Homo sapiens) | < 1000 nM

Please examine the following record next.
Name the recorded EC50 of the molecule listed here: Cn1cccc1C(=O)Nc1ccc(-n2nc3c4cccc(F)c4[nH]cc-3c2=O)cc1 [Example 3]
> 10000 nM

====

Target or test system: CD80-CD28 interaction (Homo sapiens)
Construct: mouse Fab fragment (fusion partner)
Run description: cell free Homogenous Time Resolved Fluorescence (HTRF) assay, inhibition of the CD80-CD28 interaction
Format: binding
Study conditions: 4 hours at room temperature, read-out: Activity (EC50 in summary form)
Record form. Attribute: EC50. Fill in for each entry.

Completed entries (count: 8):
Molecule | Meas value
CN(C)CCCNC(=O)c1ccc(-n2nc3c4ccccc4[nH]c(C4CC4)c-3c2=O)cc1 | < 1000 nM
CN(C)CCCNC(=O)c1ccc(-n2nc3c4ccccc4scc-3c2=O)cc1 | 1000 to 10000 nM
O=C(NCCCN1CCN(Cc2c(F)cccc2Cl)CC1)c1ccc(-n2nc3c4cccc(F)c4[nH]c(C4CC4)c-3c2=O)cc1 | < 1000 nM
COCCNC(=O)c1ccc(-n2nc3c4cccc(F)c4[nH]cc-3c2=O)cc1 | < 1000 nM
COCCNC(=O)c1cccc(-n2nc3c4cccc(F)c4[nH]cc-3c2=O)c1 | 1000 to 10000 nM
CCC(C)C(=O)Nc1ccc(-n2nc3c4ccccc4[nH]cc-3c2=O)cc1 (centres unmarked) | 1000 to 10000 nM
O=C(NCCCCN1CCCC1)c1ccc(-n2nc3c4cccc(F)c4[nH]c(C4CC4)c-3c2=O)cc1 | < 1000 nM
O=C(CCl)Nc1ccc(-n2nc3c4cccc(F)c4[nH]cc-3c2=O)cc1 | 1000 to 10000 nM

Parameters: items (list). Returns: EC50 for each item.
1. CN(C)CCCC(=O)Nc1ccc(-n2nc3c4cccc(F)c4[nH]cc-3c2=O)cc1
2. O=C(NCCCCN1CCCC1)Nc1ccc(-n2nc3c4cccc(F)c4[nH]cc-3c2=O)cc1
3. COCC(=O)Nc1ccc(-n2nc3c4cccc(F)c4[nH]cc-3c2=O)cc1
4. O=C(CN1CCCCC1)Nc1ccc(-n2nc3c4cccc(F)c4[nH]cc-3c2=O)cc1

1. < 1000 nM
2. < 1000 nM
3. 1000 to 10000 nM
4. 1000 to 10000 nM

Please report EC50 for every entry that follows.
1. O=C(NCCCCN1CCCC1)c1ccc(-n2nc3c4ccccc4scc-3c2=O)cc1
2. CCCc1c(C(=O)Nc2ccc(-n3nc4c5cccc(F)c5[nH]cc-4c3=O)cc2)cnn1-c1ccccc1
3. O=C(NCCc1cccnc1)c1ccc(-n2nc3c4cccc(F)c4[nH]cc-3c2=O)cc1
4. CN(C)c1ccc(CNCC(=O)Nc2ccc(-n3nc4c5cccc(F)c5[nH]cc-4c3=O)cc2)cc1
5. CC1CCCCN1CCCNC(=O)c1ccc(-n2nc3c4cccc(F)c4[nH]cc-3c2=O)cc1Cl (centres unmarked)
6. O=C(NCCCNC1CCCCC1)c1ccc(-n2nc3c4ccccc4scc-3c2=O)cc1
7. O=C(CNCCc1ccccn1)Nc1ccc(-n2nc3c4cccc(F)c4[nH]cc-3c2=O)cc1
8. CN(C)CCCCNC(=O)c1ccc(-n2nc3c4cccc(F)c4[nH]cc-3c2=O)cc1Cl

> 10000 nM
> 10000 nM
1000 to 10000 nM
> 10000 nM
1000 to 10000 nM
< 1000 nM
1000 to 10000 nM
1000 to 10000 nM
